Biological target: I-A^u (Mus musculus, UniProt P06344+P14438)
Sequence (P14438 1-227): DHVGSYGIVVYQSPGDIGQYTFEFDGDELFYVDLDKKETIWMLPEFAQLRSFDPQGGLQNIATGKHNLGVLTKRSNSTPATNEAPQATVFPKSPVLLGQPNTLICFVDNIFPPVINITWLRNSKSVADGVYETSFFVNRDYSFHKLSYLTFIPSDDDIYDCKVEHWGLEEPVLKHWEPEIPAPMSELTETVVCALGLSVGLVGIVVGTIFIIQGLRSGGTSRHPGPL
Sequence (P06344 28-263): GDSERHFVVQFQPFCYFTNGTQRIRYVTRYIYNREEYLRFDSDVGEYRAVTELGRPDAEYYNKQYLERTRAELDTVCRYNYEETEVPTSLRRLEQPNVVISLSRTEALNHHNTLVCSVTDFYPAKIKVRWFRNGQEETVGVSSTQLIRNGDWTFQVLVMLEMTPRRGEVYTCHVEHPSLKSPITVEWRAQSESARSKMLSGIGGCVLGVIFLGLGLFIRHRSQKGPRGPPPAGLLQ
Conditions: peptides eluted from I-A^u; T cell–depleted B10.PL splenocytes, MBP 95 μg/ml, 16 h, 37°C; based on copy number/cell of MBPAc1-18, determined by comparison to angiotensin control
Ends that are not written are not given here.
Listing of entries alongside the reported Copy/cell.
The reply should be a number in copy/cell, with the unit left off.

Observe how each entry below is paired with its result.
| substance | target | result-unit | Copy/cell |
| --- | --- | --- | --- |
| 120-137: MBP peptide from the MBP121–150 region eluted from I-A^u (IQEDPTAASGGLDVMASQ; UniProt P04370 120-137, looked up, fragment) | I-A^u (Mus musculus, UniProt P06344+P14438) | copy/cell | 3.4 |
| Ac1-20: N-acetylated NH2-terminal MBP peptide eluted from I-A^u (Ac-MGNHSGKRELSAEKASKDGE; UniProt P04370 1-20, looked up, fragment) | I-A^u (Mus musculus, UniProt P06344+P14438) | copy/cell | 24.4 |

Fill blank: measured Copy/cell of the substance 124-137: MBP peptide from the MBP121–150 region eluted from I-A^u (PTAASGGLDVMASQ; UniProt P04370 124-137, looked up, fragment) is ____. 9.2

###

Molecular target: I-A^u (Mus musculus, UniProt P06344+P14438)
Sequence (P14438 1-227): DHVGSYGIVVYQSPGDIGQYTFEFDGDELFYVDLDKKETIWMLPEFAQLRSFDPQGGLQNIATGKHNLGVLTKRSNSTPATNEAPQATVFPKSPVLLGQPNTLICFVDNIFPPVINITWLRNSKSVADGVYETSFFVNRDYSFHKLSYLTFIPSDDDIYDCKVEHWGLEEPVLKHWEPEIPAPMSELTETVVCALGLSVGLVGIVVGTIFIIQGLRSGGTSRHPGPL
Sequence (P06344 28-263): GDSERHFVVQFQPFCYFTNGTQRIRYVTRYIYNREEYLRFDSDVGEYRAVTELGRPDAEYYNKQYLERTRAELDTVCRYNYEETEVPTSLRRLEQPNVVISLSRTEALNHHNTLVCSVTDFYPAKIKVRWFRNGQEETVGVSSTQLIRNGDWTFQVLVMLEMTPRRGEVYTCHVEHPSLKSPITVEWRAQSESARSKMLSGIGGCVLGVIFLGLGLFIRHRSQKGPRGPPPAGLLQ
Conditions: peptides eluted from I-A^u; T cell–depleted B10.PL splenocytes, MBP 95 μg/ml, 16 h, 37°C; based on copy number/cell of MBPAc1-18, determined by comparison to angiotensin control
Ends that are not written are not given here.
parameter-measured: Copy/cell
Please don't drop the unit; write it after the number.

| substance | Copy/cell |
| --- | --- |
| 123-136: MBP peptide from the MBP121–150 region eluted from I-A^u (DPTAASGGLDVMAS; UniProt P04370 123-136, looked up, fragment) | 9.2 copy/cell |
| Ac1-22: N-acetylated NH2-terminal MBP peptide eluted from I-A^u (Ac-MGNHSGKRELSAEKASKDGEIH; UniProt P04370 1-22, looked up, fragment) | 5.7 copy/cell |

--- query ---
Fill blank: measured Copy/cell of the substance Ac1-16: N-acetylated NH2-terminal MBP peptide eluted from I-A^u (Ac-MGNHSGKRELSAEKAS; UniProt P04370 1-16, looked up, fragment) is ____. 18.1 copy/cell

The reported measurements were obtained from paper PMC2193784.
